Quick record of MIC values for CRKP4.
# value in µg/mL; strip the unit string

State MIC on CRKP4. Entry: `C[C@@H](O)[C@H]1C(=O)N2C(C(=O)O)=C(SCCN=CN)C[C@H]12` 16

Others:
Tell me its MIC on CRKP4: `C[C@@H](O)[C@H]1C(=O)N2C(C(=O)O)=C(S[C@@H]3CN[C@H](C(=O)N(C)C)C3)[C@H](C)[C@H]12` 32

---

These compounds were tested on CREC5; MIC is the recorded read-out.
Use µg/mL as the unit, but write only the number.

Entry `C[C@@H](O)[C@H]1C(=O)N2C(C(=O)O)=C(SCCN=CN)C[C@H]12` needs its MIC filled in; supply it. 32

# next compound below
Recall and state the measured MIC for `C[C@@H](O)[C@H]1C(=O)N2C(C(=O)O)=C(S[C@@H]3CN[C@H](C(=O)N(C)C)C3)[C@H](C)[C@H]12` . 32
